- EXPERIMENTAL_TARGET: T1, SARS-CoV-2 spike protein (nCoV-S Spike Protein Trimer, NIH) (SARS-CoV-2, UniProt P0DTC2 14-1208)
- T1 construct: also called S protein
- ASSAY_PROTOCOL: HT-SPR (Carterra LSA), mAb on chip, SARS-CoV-2 spike protein titrated, 25 C
Please go through the items and note down their Kd.
Answers are plain numbers, in nM.

# example entries with known answers
BINDER	Kd / nM
antibody 292 (antibody, V domains shown) VH: EVQLVESGGGLIQPGGSLRLSCAASGFTVSSNYMSWVRQAPGKGLEWVSVIYSGGSTYYADSVKGRFTISRDNSKNTLYLQMNSLRAEDTAVYYCARDLQGGGGPWGQGTLVTVSS VL: AIQMTQSPSSLSASVGDRVTITCRASQGIRNDLGWYQQKPGKAPKLLIYAASSLQSGVPSRFSGSGSGTDFTLTISSLQPEDFATYYCLQDYNYPRTFGQGTKVEIKR	0.0608
antibody 481 (antibody, V domains shown) VH: EVQLVESGGGLIQPGGSLRLSCAASGFTVSSNYMSWVRQAPGKGLEWVSVIYSGGSTFYADSVKGRFTISRDNSKNTLYLQMNSLRAEDTAVYYCAREVAGTYDYWGQGTLVTVSS VL: DIQMTQSPSSVSASVGDRVTITCRASQGISSWLAWYQQKPGKAPKLLIYAASSLQSGVPSRFSGSGSGTDFTLTISSLQPEDFATYYCQQANSFPGGTFGPGTKVDIKR	0.118

--- query ---
Record request: Kd value, item antibody 506 (antibody, V domains shown) VH: QITLKESGPTLVKPTQTLTLTCTFSGFSLSTSGVGVGWIRQPPGKALEWLALIYWDDDKRYSPSLKSRLTITKDTSKNQVVLTMTNMDPVDTATYYCAHHSLSSIFDYWGQGTLVTVSS VL: QSALTQPASVSGSPGQSITISCTGTSSDVGDYNYVSWYQQHPGKAPKLMIYEVSNRPSGVSNRFSGSKSGNTASLTISGLQAEDEADYYCSSYTSSSTVFGGGTKLTVLG
0.0491
